Give measured Kd for each item. Keep answers brief.
- measured.target: T1, Cynomolgus CD3εδ Fc heterodimer (Cy CD3ε Fc + CD3δ Fc-HIS) (cynomolgus, UniProt Q95LI5 22-117; Q95LI8 22-100)
- T1 construct: range 22-117;range 22-100; Made in HEK 293 cells with a heterologous signal peptide; also called Cy CD3εδ-Fc; cyno CD3εδ Fc; not shown: Fc; Fc followed by HIS tag
- T1 sequence (Q95LI5 22-117, stated change not applied, form in doubt, chain 1 of 2): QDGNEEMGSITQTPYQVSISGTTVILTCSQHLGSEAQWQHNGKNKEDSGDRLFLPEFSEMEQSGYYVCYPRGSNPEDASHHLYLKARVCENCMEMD
- T1 sequence (Q95LI8 22-100, stated change not applied, form in doubt, chain 2 of 2): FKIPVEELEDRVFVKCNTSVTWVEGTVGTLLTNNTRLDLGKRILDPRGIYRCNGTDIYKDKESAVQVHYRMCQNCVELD
- method: SPR (Biacore), Fab over immobilized CD3εδ Fc, pH 6.0
Only the number, expressed in nM, is required.

Consider the binder shown here: Antibody No. V009 (ADI-70326) Fab (Fab, V domains shown, Fab by papain digestion of the IgG1) VH: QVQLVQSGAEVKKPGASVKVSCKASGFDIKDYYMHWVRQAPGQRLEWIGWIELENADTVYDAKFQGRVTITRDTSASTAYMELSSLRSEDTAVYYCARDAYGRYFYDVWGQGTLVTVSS VL: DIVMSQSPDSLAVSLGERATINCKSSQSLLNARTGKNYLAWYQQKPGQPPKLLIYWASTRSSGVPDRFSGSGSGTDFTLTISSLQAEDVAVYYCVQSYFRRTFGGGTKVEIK What is its recorded Kd? 0.24

Give its Kd value. Item: Antibody No. V019 (ADI-76362) Fab (Fab, V domains shown, Fab by papain digestion of the IgG1) VH: QVQLVQSGAEVKKPGASVKVSCKASGFNIKDYYMHWVRQAPGQRLEWMGWIDLEEGDTIYDAKFQGRVTITRDTSASTAYMELSSLRSEDTAVYYCARDAYGRYFYDVWGQGTLVTVSS VL: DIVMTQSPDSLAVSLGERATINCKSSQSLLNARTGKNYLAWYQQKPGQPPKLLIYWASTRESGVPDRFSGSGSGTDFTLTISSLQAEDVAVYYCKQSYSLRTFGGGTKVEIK 29

Look up Kd: Antibody No. A001 (ADI-26906) Fab (Fab, V domains shown, Fab by papain digestion of the IgG1) VH: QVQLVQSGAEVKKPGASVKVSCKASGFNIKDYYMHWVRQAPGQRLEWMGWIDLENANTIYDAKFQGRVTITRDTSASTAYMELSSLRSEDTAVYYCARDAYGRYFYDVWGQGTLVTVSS VL: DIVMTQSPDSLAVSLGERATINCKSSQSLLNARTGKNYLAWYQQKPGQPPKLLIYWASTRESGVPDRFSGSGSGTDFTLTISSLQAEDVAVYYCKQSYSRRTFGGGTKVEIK 1.9

Which Kd value is on record for Antibody No. V015 (ADI-76358) Fab (Fab, V domains shown, Fab by papain digestion of the IgG1) VH: QVQLVQSGAEVKKPGASVKVSCKASGFNIKDYYMHWVRQAPGQRLEWMGWIDLENADTIYDAKFQGRVTITRDTSASTAYMELSSLRSEDTAVYYCARDQYGRYFYDVWGQGTLVTVSS VL: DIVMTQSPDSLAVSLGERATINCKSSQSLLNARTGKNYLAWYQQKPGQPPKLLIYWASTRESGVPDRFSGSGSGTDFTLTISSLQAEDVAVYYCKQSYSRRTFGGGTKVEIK ? 11

Dear colleague, I am looking for the recorded Kd of the following binder: Antibody No. A003 (ADI-26913) Fab (Fab, V domains shown, Fab by papain digestion of the IgG1) VH: QVQLVQSGAEVKKPGASVKVSCKASGFNIKDYYMHWVRQAPGQRLEWMGWIDLENANTIYDAKFQGRVTITRDTSASTAYMELSSLRSEDTAVYYCARDQYGRYFYDVWGQGTLVTVSS VL: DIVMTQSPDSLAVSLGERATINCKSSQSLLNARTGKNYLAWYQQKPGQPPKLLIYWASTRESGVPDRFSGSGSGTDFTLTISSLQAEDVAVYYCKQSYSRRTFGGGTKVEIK 11

Quick one: Kd for Antibody No. V013 (ADI-70330) Fab (Fab, V domains shown, Fab by papain digestion of the IgG1) VH: QVQLVQSGAEVKKPGASVKVSCKASGFNIDDYYMHWVRQAPGQRLEWIGWIDLENANTVDDAKFQGRVTITRDTSASTAYMELSSLRSEDTAVYYCARDAYGRYFYDVWGQGTLVTVSS VL: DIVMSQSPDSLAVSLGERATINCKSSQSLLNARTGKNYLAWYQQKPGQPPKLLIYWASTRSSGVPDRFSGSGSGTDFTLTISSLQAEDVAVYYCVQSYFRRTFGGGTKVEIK ? 0.27

May I ask what Kd has been recorded for Antibody No. V017 (ADI-76360) Fab (Fab, V domains shown, Fab by papain digestion of the IgG1) VH: QVQLVQSGAEVKKPGASVKVSCKASGFNIKDYYMHWVRQAPGQRLEWMGWIDLENADTIYDAKFQGRVTITRDTSASTAYMELSSLRSEDTAVYYCGRDAYGRYFYDVWGQGTLVTVSS VL: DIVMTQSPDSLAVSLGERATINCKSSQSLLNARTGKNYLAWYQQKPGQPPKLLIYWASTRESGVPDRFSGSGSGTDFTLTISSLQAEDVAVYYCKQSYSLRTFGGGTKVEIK ? 26

# Kd lookup, item Antibody No. V007 (ADI-67450) Fab (Fab, V domains shown, Fab by papain digestion of the IgG1) VH: QVQLVQSGAEVKKPGASVKVSCKASGFNIDDYYMHWVRQAPGQRLEWMGWIDLENANTIDDAKFQGRVTITRDTSASTAYMELSSLRSEDTAVYYCARDAYGRYFYDVWGQGTLVTVSS VL: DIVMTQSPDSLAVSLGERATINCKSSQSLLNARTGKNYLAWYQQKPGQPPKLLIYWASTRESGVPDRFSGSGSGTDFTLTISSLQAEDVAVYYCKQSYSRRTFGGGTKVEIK 2.1

# query: Kd of entry Antibody No. A002 (ADI-50024) Fab (Fab, V domains shown, Fab by papain digestion of the IgG1) VH: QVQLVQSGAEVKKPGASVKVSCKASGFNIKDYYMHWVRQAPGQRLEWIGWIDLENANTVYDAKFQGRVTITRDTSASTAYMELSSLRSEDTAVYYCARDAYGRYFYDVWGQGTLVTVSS VL: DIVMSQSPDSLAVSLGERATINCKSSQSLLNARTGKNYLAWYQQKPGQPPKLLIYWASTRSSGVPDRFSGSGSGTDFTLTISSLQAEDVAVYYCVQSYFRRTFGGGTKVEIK 0.2

May I ask what Kd has been recorded for Antibody No. A004 (ADI-26920) Fab (Fab, V domains shown, Fab by papain digestion of the IgG1) VH: QVQLVQSGAEVKKPGASVKVSCKASGFNIKDYYMHWVRQAPGQRLEWMGWIDLENANTIYDAKFQGRVTITRDTSASTAYMELSSLRSEDTAVYYCGRDAYGRYFYDVWGQGTLVTVSS VL: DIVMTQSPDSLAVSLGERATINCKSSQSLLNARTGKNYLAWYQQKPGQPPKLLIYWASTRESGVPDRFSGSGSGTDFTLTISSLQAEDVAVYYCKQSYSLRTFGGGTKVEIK ? 15
